All figures here come from the RNAGym collection of RNA variant scans (doi:10.1126/science.aae0568).

Item-by-item account of yeast fitness
B1: tRNA (parent)
chain: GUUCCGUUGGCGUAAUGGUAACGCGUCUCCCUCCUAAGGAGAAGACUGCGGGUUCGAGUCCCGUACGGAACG

- Variants of: B1
- Experimental Details: yeast fitness relative to wild type (ratio to wild type); higher = fitter; tRNA-Arg(CCU), competitive growth, 37 C, YPD
This sample holds only a part of the variants without activity.

{"columns": ["Sequence Text", "yeast fitness"],
 "data": [
  ["GCUCCGUUGGCGUAAUGGUAACGCGUCUCCCUUCUAAGGAGAAGACUGCGGGUUCGAGUCGCGUACGGAACG", "≤ 0.5"],
  ["GUUCCGUUGGCGUAAUGGUAACGCCUCUCCGUCCUAAGGAGAAGACUGCGGGUUCGAGUCCUGUACGGAACG", 0.737],
  ["GUUCCGUUGGCGCAAUGAUAACGCGUCUCCCUCCUAAGGAGAAGAGAGUGGGUUGGCGUCCCGUACGGAACG", "≤ 0.5"],
  ["GUUCCGUUGGCCUAAUGGUUACGCGUCUCUCUCCUAAGGAGAAGACUGCGGGUUUGAGUCCCGUAUGGAACG", 0.551],
  ["GUUGCGUUGGCGUAAUGGUCACGCGUCUCAGUCAUAGGGAGAAGACUGAGGGUUCGCGUCCCGUACGGAACG", "≤ 0.5"],
  ["GUUCCGUUGGCGUAAUGGUAACGCGUCUCCAUCCUAAGGAGAACACUGCGGGUUCGAGUCCCAUACGGAACG", "≤ 0.5"],
  ["GUUCCCUUGGCGAAAUGGUAACGUGUCUCCAUCCUAAGGAGAAGACUGCGGGUCCGAGUCCCGUACGGAACG", "≤ 0.5"],
  ["GUUCCGUUGGCGUAAUGGUAACGCGUCUCCCUCCUAAGGAGAAAACUGCGGGUUUGAGUCCCAUACGGAACG", "≤ 0.5"],
  ["GUACCGUUCGCGUAAUGGUGACGCGUCUCCCUCCUAAGGGGAAGACUGCGGGUUCGAGUCCCGCACGGAACG", "≤ 0.5"],
  ["GUUCCGUUGACGUAAUGGUAACGCGUCUCCCUCCUAAGGAGAAGACUGCGGGUUCGAGUCACGUACGGCCCG", "≤ 0.5"],
  ["GUUCCGUUGGAGUAAUGGUAACGCGUCUCCCUCCUAAGGAGAAGACUGCGGGUUAGAGUCCCGUACGGAACG", "≤ 0.5"],
  ["GUUACGUUGGCGUAAUGGUAACGCGUCUCCCUCCUAAGGAGAAGUCUGCGGGUUCGAGUCCUGUACGAAACG", 0.562],
  ["GUUCCGUUGGCGUAAUCGUAACGCGUCUCCCUCCUAAGGAGAAGACUGCGGGUUCAAGUCCCGUACGGAACG", 0.709],
  ["GUUCCAUUGGCGUAAUGGGAACGCGUCUCCCUCCUAAGGAGAAGACUGCGGAUUCGAGUCCCGUACGGAACG", 0.606],
  ["GUUCCGUUGGCGUAAUGGUAACGCGUCUCCCUCAUCAGGAGAAGACUGCGGGUUCGAGUCCCGUACAGAACG", "≤ 0.5"],
  ["GUUCAGUUGGCGUAAUGGUAACCCGUCUCCCUCCUAAGGACAAGACUGCCGGUUCGAGUCCCGUACGGAACG", "≤ 0.5"],
  ["GUUCCGUUGGCGUAAUGGUAACGCGUCCCCCUCCUAAGGAGAAGUCUGCGGGUUCGAGUCCCGUACGGAACG", 0.985],
  ["GGUCCGUUGGCGUAAUGGUAACGCGUCUCCCUCCUAAGGAGAAGACUGCGGGUUCGAGUCCCGUACGGAACG", 0.994],
  ["GUUCCGUUGGCGUAAUGGUAACGCGUCCGCCUCCUAAGGAGAAGACUGCGGGUUCGAGUCCCGUACGGAACG", 0.566],
  ["GUUCCGUUGGCGUAAUGGUAACGCGUCUCCAUCCUAACGAGACGAGUGCGGGUUCGAGUCCCGUACGGAACG", 0.672],
  ["GUUACGUUGGCGUAAUAGUAACGCGUCUCCCUCCUAAGGAAAAGACUGCGGGUUCGAGUCCCGUACGGUACG", "≤ 0.5"],
  ["GUUCCGUUGGCGUAAUGGUAACGCGCCUCCCUCCUAAGGAGAAGACUGCGAGUUCGAGUCCCGUACGGAACG", 0.774],
  ["GUUCCGUUGGGCUAAUGGUAACGCGUCUCCCUCCUAAGGAGAAGACUGCGGGUUCGAGUGCCGUACGGAACG", "≤ 0.5"],
  ["GUUCCGUUGGCGUAAUGGUAACACGUCUCCCUCCUAAGGAGAAGACUGCGGGCUCGAGUCCCGUAAGGAACG", "≤ 0.5"],
  ["GUUCCGUUGGCGUAAAGGUAACGCGUCUCCCUCCUAAGGAGAAGACUGCGGGUACGAGUCCCGUACGGAACG", 0.573],
  ["GUUCCGAUGGCGUAAUGGUAACGCGUCUCCCUCCUAAGGAGAAGAGUGCGGGUUCGAGUCUCGUACGGAACG", 0.601],
  ["GUUGCGAUGGCGUAAUGGCCACGUGUCUCCCUCCUAAGGAGAAGACUGCGGGCUCGAGUCCCGUACGGAACG", "≤ 0.5"],
  ["GUUCCGUUGGUGUAAUGGUAACGCGUCUCCCUCCUAAGGAGAACACUGCGGGUUCGAGUCCCGUACGGAACG", 0.974],
  ["GUUCCGUUGGCGUACUGGUAACGCGUCUCCCUUCUAAGGAGAAGACGGUGGCUUCGAGUCCCGUACGGAACG", "≤ 0.5"],
  ["GUUCUGUUGGCGUAAUGGUAACGCGACUCCCUCCUAAGGAGAAGACUGCGGGUUCCAGUCCCGUCCGGAACG", 0.53],
  ["GUUCCGUUGACGUCAUGGUAACGCGUCUCCCUCUUAAGGAGGAGACUGCGGGUUCGAGUCCCGUACGGAACG", 0.65],
  ["GUUCCGUUGGCGUAAAGGUAACGCGUCUGUCUCCUAAGGUGAAGACUGCGGGUUCGAGUCCCGUACGGAGCG", "≤ 0.5"],
  ["GUUCCGUUGCCGUAAUGGUAACGCGUCUCCCUACUAAGGAGAAGACUGCGGGUUCCAGUCCCGUACGGAACG", 0.577],
  ["GUUCCGUUGGCGUAAUGGUAACGAGUGUGCCUCCUAAGGAGAAGACUGCGGCUUCGAGUCCUGUACGGAACG", 0.567],
  ["GUUCCGUUGGCGUAAUGGUAACGCGUCUGCCUCCUAAGGUGAAGACUGCCGGUUCGAGUCCCGUACGGAACG", 0.636],
  ["GUUCCGUUGGCGUAAUGGUAACGCGUCUACCUGCUAAGGAGAAGCCUGCGGGUUCGAGUCCCGUACGGAACG", 0.543],
  ["GUUCCGUUGGCGUACUGGUAACGCGUCUCGCUCCUAAGGAGCAGACUGCGGGUUCAUGUCCCAUACGGAACG", "≤ 0.5"],
  ["GUUCCGAUGGCAUAAUGGUAACGCGUCUCUCUCCUAAGGAGAAGACUGCGGGUUCGAGUCCCGUACGGAACG", "≤ 0.5"],
  ["GUUUCGUUGGCGUAAUGGUAACGCGUCUCCCGCCUAAGGAGAAGACUGCGGGUUCGGGUCCCGUACGGAACG", "≤ 0.5"],
  ["GUUCCGGUGGCGUAAUGGUAACGCGUCUCCCUUCUAAGGAGAAGACUGCGGGUUCGAGUCCCGUACGGAACG", 0.749],
  ["GUUCCGUUGGUGUAAUGGUAACGCAUCUCCCUCCUAAGGAGAAGACUGCGGGUUCGAGUCCUGUACGGACCG", 0.67],
  ["GUUCUGUUGGCGUAAUGGUAUCGCGUCUCGCUCCUAAGGAGAAGACUGCGGGUUCGACUCCCGUACGGAACG", "≤ 0.5"],
  ["GUUCCGUUGGCGUAAUGGUAACGCGUCUCCCUCCUAACGAGAAGACUGCAGGUUCGAGUCCCGCACGGAACG", 0.832],
  ["GUUCCGUUGACGUAAUGGUAACGCGUCUCCAUCCUACGGAGAAGACUGCGGGUUCGAGUCCCGUACGGAACG", "≤ 0.5"],
  ["GUUCCGUUGGCGUAAUGGUAACGUGUCUCCCUCCUAAGGAGAAGACUGCGGGUUCGAGAGCCGUACGGAACG", 0.754],
  ["GUUCCGUUGGCGUGAUGGUCACGCGUCUCCCUCCUAAGGAGAAGAGUGCGGGUUCGAGUCCCGUACGGAACG", 0.635]
]}
